- system_under_test: Cytochrome P450 2C9 (Homo sapiens) (UniProt P11712)
- Sequence (P11712 whole entry, looked up): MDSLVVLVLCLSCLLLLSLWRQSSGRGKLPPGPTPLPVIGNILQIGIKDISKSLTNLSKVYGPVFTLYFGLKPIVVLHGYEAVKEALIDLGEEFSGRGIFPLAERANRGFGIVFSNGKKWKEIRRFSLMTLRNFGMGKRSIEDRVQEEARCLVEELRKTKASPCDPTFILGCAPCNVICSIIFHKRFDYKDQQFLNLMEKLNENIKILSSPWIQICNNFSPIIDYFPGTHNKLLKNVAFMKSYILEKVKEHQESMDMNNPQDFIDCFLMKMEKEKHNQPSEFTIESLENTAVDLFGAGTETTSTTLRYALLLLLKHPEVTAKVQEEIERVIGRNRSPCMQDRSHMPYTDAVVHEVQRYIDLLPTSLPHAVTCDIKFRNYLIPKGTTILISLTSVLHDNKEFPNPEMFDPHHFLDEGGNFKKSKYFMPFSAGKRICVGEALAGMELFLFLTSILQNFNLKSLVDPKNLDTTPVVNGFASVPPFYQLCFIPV
- assay_details: Cytochrome P450 family 2 subfamily C member 9 (CYP2C9) small molecule antagonists: luciferase biochemical (cell-free) qHTS assay (AID 1645842); also: nearly all actives have a fitted effect of over 55% in size
- protocol_conditions: P450-Glo CYP2C9 enzyme assay, luciferin luminescence; series mostly up to 57.4 µM
Results filed as inconclusive are left out. Activity calls are given as the source filed them. Calls follow the shape of the dose curve; as a rule, active = well fitted inhibition curve with a large enough effect in the repeat runs; inconclusive = weak or mixed curves; inactive = no such curve, though single readings can be large or run the other way.
Answer with one of the outcomes given here: yes (1) for active, no (0) for inactive

[
  {
    "compound": "COc1cc(NC(=O)c2ccccn2)ccc1Cl",
    "qualitative_label": "yes (1)"
  },
  {
    "compound": "CC(C)Nc1cc(-c2c[nH]c(C(=O)N[C@H](CO)c3cccc(Cl)c3)c2)c(Cl)cn1",
    "qualitative_label": "yes (1)"
  },
  {
    "compound": "Cc1nn(C)c2c1C(c1ccc(C(F)(F)F)cc1)C(C#N)=C(N)O2 (stereo unspecified)",
    "qualitative_label": "yes (1)"
  }
]

Give the logged outcome of this assay for the following compound: C[C@@H](Nc1cc(NS(=O)(=O)N2CCC2)nc(SCc2cccc(F)c2F)n1)[C@@H](O)CO
no (0)

Please give the result for CNC(=O)COC(=O)NCCC1CCN(c2cccc(C)n2)CC1 too.
no (0)

Next compound: CC1(C)CCC(C)(C)c2cc3c(cc21)Sc1ccccc1N=C3c1ccc(C(=O)O)cc1
no (0)

###

- Tested on: KB-3-1
- assay_details: Cytotoxic Profiling of Annotated Libraries Using Quantitative High-Throughput Screening (AID 1296008); also: % is scaled to controls: 0 for no effect and ±100 for the full control effect; nearly all actives have a fitted effect of over 60% in size
- protocol_conditions: Five cell lines viability, CellTiter-Glo ATP luminescence, 48-72 h; active compounds read low
Records with an inconclusive call do not appear.
metric_name: max response (%)
Answer in %, number only, no unit symbol.

Examples with their reported max response follow.
[
  {
    "compound": "CC1(C)CC[C@]2(C(=O)O)CC[C@]3(C)C(=CCC4[C@@]5(C)CCC(O[C@@H]6OC[C@H](O)[C@H](O)[C@H]6O[C@@H]6O[C@H](CO)[C@@H](O)[C@H](O)[C@H]6O)[C@@](C)(CO)C5CC[C@]43C)[C@@H]2C1 (some centres undefined)",
    "max response, %": 4.54
  },
  {
    "compound": "C=CCc1ccc(O[C@@H]2O[C@H](CO[C@@H]3O[C@H](CO)[C@@H](O)[C@H](O)[C@H]3O)[C@@H](O)[C@H](O)[C@H]2O)c(O)c1",
    "max response, %": -2.46
  },
  {
    "compound": "CC(=O)N[C@H]1CCN(c2ccc(C3=NOC(CN[S+](=O)([O-])C(C)C)C3)cc2F)C1 (some centres undefined)",
    "max response, %": -0.511
  },
  {
    "compound": "COc1cc(/C=C/C(=O)O[C@H]2[C@H](O)[C@@H](CO)O[C@@]2(CO)O[C@H]2O[C@H](COC(=O)c3ccc(O)cc3)[C@@H](O)[C@H](O)[C@H]2O)cc(OC)c1OC",
    "max response, %": 3.54
  },
  {
    "compound": "CO[C@@H](Cc1ccc(OCCc2nc(-c3ccccc3)oc2C)c2ccsc12)C(=O)O",
    "max response, %": -3.49
  }
]

Give the measured max response of CC1CCC2C(C)(C)C(O)CCC2(C)C12Cc1c(O)cc3c(c1O2)CN(C(CCC(N)=O)C(=O)O)C3=O (centres undefined) .
5.86

Let us now turn to CC1(C)S[C@@H]2[C@H](NC(=O)Cc3ccccc3)C(=O)N2[C@H]1C(=O)O
-8.27

Also CC(C)(OC1OC(CO)C(O)C(O)C1O)C1CCC(O)(CO)C2CC(O)C(C)(O)C2C1 (centres undefined) ?
2.34

Another compound: C=CC1C(O[C@@H]2O[C@H](CO)[C@@H](O)[C@H](O)[C@H]2O)OC=C(C(=O)OC)C1Cc1nccc2c1[nH]c1ccccc12 (some centres undefined)
5.15

Next: C[C@@H]1O[C@@H](O[C@H]2[C@H](O[C@H]3[C@H](O[C@H]4CC[C@@]5(C=O)C(CC[C@]6(C)C5CC=C5C7CC(C)(C)C[C@@H](O)[C@]7(C)CC[C@]56C)C4(C)C)O[C@H](C(=O)O)[C@@H](O)[C@@H]3O)OC[C@@H](O)[C@@H]2O)[C@H](O)[C@H](O)[C@H]1O (some centres undefined)
7.57

Could you do the same for O=C(c1ccc(NS(=O)(=O)c2cccc3cccnc23)cc1)N1CCN(CC2CC2)CC1 , please?
-0.69

Then what about the compound CC(C)CC(=O)OC[C@H]1O[C@@](COC(=O)CC(C)C)(O[C@H]2O[C@H](CO)[C@@H](O)[C@H](O)[C@H]2O)[C@@H](OC(=O)CC(C)C)[C@@H]1OC(=O)CC(C)C ?
9.19

Now consider O=S(=O)(O)O .
5.37

Same for CCOC(=O)N1CCC(NCCNC(=O)c2ccccc2C)CC1
6.5

###

- Test system: 7G8
- assay_details: qHTS profiling for inhibitors of Plasmodium falciparum proliferation (AID 504749); also: nearly all actives have a fitted effect of over 60% in size
- protocol_conditions: P. falciparum in erythrocytes, SYBR Green DNA, 72 h; series mostly up to 28.7 µM
Records with an inconclusive call do not appear. Calls of active or inactive are those of the source. The call rests on the fitted dose curve; in most records, active means well fitted inhibition curve with a large enough effect; inconclusive means small, poorly fitted or top-dose-only effect; inactive means flat fitted curve, though single readings scatter.
Outcome (select one): 1 (yes) for active, 0 (no) for inactive

Consider the following illustrative entries.
[
  {
    "compound": "NC(=O)c1ncn(C2OC(CO)C(O)C2O)n1 (stereo not drawn)",
    "system_under_test": "7G8",
    "qualitative_label": "1 (yes)"
  },
  {
    "compound": "Nc1c(Br)cc(Br)cc1CNC1CCC(O)CC1 (stereo not drawn)",
    "system_under_test": "7G8",
    "qualitative_label": "0 (no)"
  },
  {
    "compound": "C=CCSSSCC=C",
    "system_under_test": "7G8",
    "qualitative_label": "0 (no)"
  },
  {
    "compound": "COC(C(=O)C(O)C(C)O)C1Cc2cc3cc(OC4CC(OC5CC(O)C(O)C(C)O5)C(O)C(C)O4)c(C)c(O)c3c(O)c2C(=O)C1OC1CC(OC2CC(OC3CC(C)(O)C(O)C(C)O3)C(O)C(C)O2)C(O)C(C)O1 (stereo not drawn)",
    "system_under_test": "7G8",
    "qualitative_label": "1 (yes)"
  },
  {
    "compound": "CCCCC(=O)O[C@]1(C(=O)CO)[C@H](C)C[C@H]2[C@@H]3CCC4=CC(=O)C=C[C@]4(C)[C@@]3(F)[C@@H](O)C[C@@]21C",
    "system_under_test": "7G8",
    "qualitative_label": "1 (yes)"
  }
]

# fetch the recorded call for O=S(=O)(O)O here
0 (no)

###

- assay_details: Cell Viability - SH-SY5Y (AID 544);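 also: cells exposed to compound for 40 hours; 0% = DMSO alone and -100% = 100 µM tamoxifen; nearly all actives have a fitted effect of over 55% in size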
- protocol_conditions: SH-SY5Y neuroblastoma cell viability; at 92.2 µM (top of the series)
Records with an inconclusive call do not appear.
metric_name: viability change, negative = cytotoxic (%)
Numeric only. Scale: %

[
  {
    "smiles_str": "O=C(O)CCC(=O)C(=O)O",
    "viability change, negative = cytotoxic (%)": 4.65
  },
  {
    "smiles_str": "Nc1ccn([C@H]2CS[C@@H](CO)O2)c(=O)n1",
    "viability change, negative = cytotoxic (%)": 1.14
  }
]

From here, focus on the item given below.
Quick one: viability change, negative = cytotoxic of CCOC(C)=O ?
-3.69

###

Recorded max response, one value per entry.
- System: CRL-7250
- assay_details: Cytotoxic Profiling of Annotated Libraries Using Quantitative High-Throughput Screening (AID 1296008); also: % is scaled to controls: 0 for no effect and ±100 for the full control effect; nearly all actives have a fitted effect of over 60% in size
- protocol_conditions: Five cell lines viability, CellTiter-Glo ATP luminescence, 48-72 h; active compounds read low
Records with an inconclusive call do not appear.
Just the number in %, nothing appended.

max response of COC(=O)[C@H](OC(C)=O)[C@H]1C(C)(C)C(=O)[C@H]2CC3=C4CC(=O)O[C@@H](c5ccoc5)[C@]4(C)CCC3[C@@]1(C)C2=O (some centres undefined) on CRL-7250?
-5.81

###

- Test system: HB3
- assay_details: qHTS profiling for inhibitors of Plasmodium falciparum proliferation (AID 504749); also: nearly all actives have a fitted effect of over 60% in size
- protocol_conditions: P. falciparum in erythrocytes, SYBR Green DNA, 72 h; series mostly up to 28.7 µM
Records with an inconclusive call do not appear. Active and inactive are the calls of the source. Calls follow the shape of the dose curve; as a rule, active = well fitted inhibition curve with a large enough effect; inconclusive = small, poorly fitted or top-dose-only effect; inactive = flat fitted curve, though single readings scatter.
Give your call using only these classes: Yes = active, No = inactive

[
  {
    "molecule": "O=S(=O)(O)O",
    "system_under_test": "HB3",
    "qualitative_label": "No"
  },
  {
    "molecule": "CCCC(=O)O[C@]1(C(=O)CCl)[C@H](C)C[C@@H]2[C@H]3CCC4=CC(=O)C=C[C@]4(C)[C@@]3(F)C(=O)C[C@@]21C",
    "system_under_test": "HB3",
    "qualitative_label": "Yes"
  },
  {
    "molecule": "CCCCCCCC(=O)O",
    "system_under_test": "HB3",
    "qualitative_label": "No"
  },
  {
    "molecule": "O=S(=O)(O)c1ccc2c(N=Nc3ccc(S(=O)(=O)O)c4ccccc34)c(O)c(S(=O)(=O)O)cc2c1",
    "system_under_test": "HB3",
    "qualitative_label": "No"
  }
]

Moving on to another molecule below.
# fetch the recorded call for CC(O)CO (stereo not given) here
No
